# credit: patent US20240132525A1

assay: Pharmacokinetic profile after single oral administration in Beagle dogs; type: in vivo; details: dog, in vivo; male Beagle dogs, single oral dose about 1.0 mg/kg, fasted; read-out: Mean AUClast
PROPERTY NAME: AUC(0-t) (ng·h/mL)
One number for each entry, in ng·h/mL.

Reported AUC(0-t) for Cc1cnc(Nc2cc3c(c(C(F)(F)F)c2)B(O)OC3)nc1N[C@@H]1COCC[C@H]1C#N (single isomer, unassigned) [Example 033a] was 2460

---

assay: Dog LM (liver microsome) assay; type: in vitro ADME; conditions: Table 3a; predicted clearance as percent of liver blood flow, 1 μM, 1 mg/ml microsomal protein
PROPERTY NAME: Dog LM QH

As a guide, the following entries are already answered.
[[record]]
compound = "Cc1cnc(Nc2cc(Cl)c3c(c2)COB3O)nc1N[C@@H]1CCC[C@H]1C#N (single isomer, unassigned) [Example 003a]"
result = "<19.9%"

[[record]]
compound = "Cc1cnc(Nc2cc(Cl)c3c(c2)COB3O)nc1NC1CCCC[C@@H]1C#N (single isomer, unassigned) [Example 010b]"
result = "<19.9%"


Reported Dog LM QH for Cc1cnc(Nc2cc(C)c3c(c2)COB3O)nc1N[C@@H]1CCCC[C@H]1C#N (relative stereo) [Example 009] was <19.9%

---

molecular target: JAK2 (Homo sapiens (Human), UniProt O60674); assay: Biochemical kinase assay (33P-ATP filter-binding), JAK2; details: Table 3a; read-out: IC50 JAK2
Sequence (O60674 whole entry, species assumed): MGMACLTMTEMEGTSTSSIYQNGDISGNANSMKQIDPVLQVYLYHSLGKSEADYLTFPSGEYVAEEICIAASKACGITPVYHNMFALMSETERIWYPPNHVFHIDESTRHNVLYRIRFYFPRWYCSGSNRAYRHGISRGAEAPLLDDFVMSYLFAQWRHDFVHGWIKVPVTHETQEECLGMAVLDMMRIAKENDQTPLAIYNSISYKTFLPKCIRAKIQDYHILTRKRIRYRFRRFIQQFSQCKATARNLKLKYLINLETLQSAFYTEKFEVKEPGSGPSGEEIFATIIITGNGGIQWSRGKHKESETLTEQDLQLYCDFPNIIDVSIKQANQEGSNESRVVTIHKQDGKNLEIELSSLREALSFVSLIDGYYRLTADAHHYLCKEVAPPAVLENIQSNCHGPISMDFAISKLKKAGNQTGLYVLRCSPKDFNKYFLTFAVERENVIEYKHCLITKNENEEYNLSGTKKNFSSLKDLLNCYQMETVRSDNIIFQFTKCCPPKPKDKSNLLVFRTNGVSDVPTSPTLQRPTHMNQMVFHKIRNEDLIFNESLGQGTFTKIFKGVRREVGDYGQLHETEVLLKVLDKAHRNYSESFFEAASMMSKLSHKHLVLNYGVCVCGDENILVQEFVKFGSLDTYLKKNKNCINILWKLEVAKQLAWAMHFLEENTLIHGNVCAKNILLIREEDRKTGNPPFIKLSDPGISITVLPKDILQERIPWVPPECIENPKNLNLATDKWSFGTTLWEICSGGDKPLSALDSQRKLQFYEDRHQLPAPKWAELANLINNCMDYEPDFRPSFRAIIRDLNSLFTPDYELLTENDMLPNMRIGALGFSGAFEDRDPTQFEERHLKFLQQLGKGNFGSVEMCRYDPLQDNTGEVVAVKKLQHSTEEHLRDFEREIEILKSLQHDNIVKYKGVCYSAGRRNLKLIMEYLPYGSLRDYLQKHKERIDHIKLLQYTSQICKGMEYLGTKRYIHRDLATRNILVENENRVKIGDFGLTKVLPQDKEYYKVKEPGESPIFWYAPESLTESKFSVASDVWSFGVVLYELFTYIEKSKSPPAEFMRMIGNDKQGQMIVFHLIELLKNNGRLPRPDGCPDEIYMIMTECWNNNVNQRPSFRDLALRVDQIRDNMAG
PROPERTY NAME: pIC50
Give bare numbers, as −log10 of the molar value.

As a guide, the following entries are already answered.
[[record]]
molecule = "Cc1cnc(Nc2cc(C)c3c(c2)COB3O)nc1N[C@@H]1COCC[C@H]1C#N (relative stereo) [Example 027]"
numeric_readout = 8.46

[[record]]
molecule = "Cc1cnc(Nc2ccc3c(c2)C(C(C)C)=CB(O)O3)nc1N[C@H]1COCC[C@@H]1C#N (single isomer, unassigned) [Example 039b]"
numeric_readout = 5.69


Could you now consider this next molecule?
Reported pIC50 for Cc1cnc(Nc2ccc3c(c2)COB3O)nc1N[C@@H]1CCC[C@H]1C#N (relative stereo) [Example 001] was 7.61

---

molecular target: JAK2 (Homo sapiens (Human), UniProt O60674); assay: Biochemical kinase assay (33P-ATP filter-binding), JAK2; settings: Table 3a; read-out: IC50 JAK2
Counter-ions that a name gives are not always drawn.
PROPERTY NAME: pIC50
Numbers only, as −log10 of the molar value.

As a guide, the following entries are already answered.
[[record]]
compound = "Cc1cnc(Nc2ccc3c(c2)C(C)(C)OB3O)nc1N[C@@H]1CCCC[C@H]1C#N (relative stereo) [Example 014, hydrochloride]"
numeric_readout = 8.20

[[record]]
compound = "Cc1cnc(Nc2cc(F)c3c(c2)COB3O)nc1NC1COCCC1C#N (racemic)"
numeric_readout = 8.01

[[record]]
compound = "Cc1cnc(Nc2cc(C)c3c(c2)COB3O)nc1N[C@@H]1CCC[C@H]1C#N (relative stereo)"
numeric_readout = 7.92

[[record]]
compound = "Cc1cnc(Nc2cc(C#N)c3c(c2)COB3O)nc1N[C@@H]1COCC[C@H]1C#N (relative stereo)"
numeric_readout = 7.97

[[record]]
compound = "Cc1cnc(Nc2ccc3c(c2)C=CB(O)O3)nc1N[C@@H]1COCC[C@H]1C#N (relative stereo)"
numeric_readout = 8.06

[[record]]
compound = "N#C[C@@H]1CCC[C@H]1Nc1nc(Nc2ccc3c(c2)COB3O)ncc1Cl (relative stereo)"
numeric_readout = 8.05


Could you now consider this next compound?
Reported pIC50 for Cc1cc(Nc2ncc(Cl)c(NC3CCCCC3C#N)n2)cc2c1B(O)OC2 (stereo not shown) was 7.95
